- Test system: Anopheles stephensi
- measurement-description: Anopheles stephensi treated well plate contact test: knockdown and mortality
- Assay type: in vivo
- settings: test compound 0.2 ppm plus 2 ppm TFNA-AM, after 48 hours
outcome-measure: mortality % 48, with TFNA-AM (%)
Provide the reading as a plain figure in %.

CCOC(=O)NCCOc1ccc(Oc2ccccc2)cc1 [Fenoxycarb] | 40
Cc1ccc(/N=C/N(C)/C=N/c2ccc(C)cc2C)c(C)c1 [Amitraz] | 0
CN/C(=N/CC1CCOC1)N[N+](=O)[O-] (centres unmarked) [Dinotefuran] | 60
N#Cc1nn(-c2c(Cl)cc(C(F)(F)F)cc2Cl)c(N)c1[S+]([O-])C(F)(F)F (centres unmarked) [Fipronil] | 100
CC(c1ccc(C(F)(F)F)nc1)S(C)(=O)=NC#N (centres unmarked) [Sulfoxaflor] | 20

Query :: So what does the record say about mortality % 48, with TFNA-AM for CO/C=C(/C(=O)OC)c1ccccc1Oc1cc(C(F)(F)F)ccn1 [Compound 49] ?
Result :: 10

Query :: // repeat for O=c1c(-c2cccc(C(F)(F)F)c2)c([O-])[n+](Cc2cncnc2)c2ccccn12 [Triflumizopyrim] and report
Result :: 0

Query :: // repeat for CO/C=C(/C(=O)OC)c1ccccc1Oc1nc(C(C)(C)C)ns1 [Compound 48] and report
Result :: 100

Query :: // repeat for O=C1C=C(N(Cc2ccc(Cl)nc2)CC(F)F)CO1 [Flupyradifurone] and report
Result :: 0

Query :: // repeat for CNC(=O)Oc1ccccc1OC(C)C [Propoxur] and report
Result :: 100

Query :: // repeat for CO/C=C(/C(=O)OC)c1ccccc1Oc1ncc(C(F)(F)F)s1 [Compound 54] and report
Result :: 10
